molecular target: eNPP1 (ectonucleotide pyrophosphatase/phosphodiesterase family member 1) (Homo sapiens, UniProt P22413); assay: Drug metabolism assessed as human eNPP1-mediated compound hydrolysis at 4 mM after 2 hrs by reverse-phase HPLC analysis relative to ATP; type: ADME; details: human eNPP1 enzyme, read-out: Drug metabolism
Sequence (P22413 whole entry): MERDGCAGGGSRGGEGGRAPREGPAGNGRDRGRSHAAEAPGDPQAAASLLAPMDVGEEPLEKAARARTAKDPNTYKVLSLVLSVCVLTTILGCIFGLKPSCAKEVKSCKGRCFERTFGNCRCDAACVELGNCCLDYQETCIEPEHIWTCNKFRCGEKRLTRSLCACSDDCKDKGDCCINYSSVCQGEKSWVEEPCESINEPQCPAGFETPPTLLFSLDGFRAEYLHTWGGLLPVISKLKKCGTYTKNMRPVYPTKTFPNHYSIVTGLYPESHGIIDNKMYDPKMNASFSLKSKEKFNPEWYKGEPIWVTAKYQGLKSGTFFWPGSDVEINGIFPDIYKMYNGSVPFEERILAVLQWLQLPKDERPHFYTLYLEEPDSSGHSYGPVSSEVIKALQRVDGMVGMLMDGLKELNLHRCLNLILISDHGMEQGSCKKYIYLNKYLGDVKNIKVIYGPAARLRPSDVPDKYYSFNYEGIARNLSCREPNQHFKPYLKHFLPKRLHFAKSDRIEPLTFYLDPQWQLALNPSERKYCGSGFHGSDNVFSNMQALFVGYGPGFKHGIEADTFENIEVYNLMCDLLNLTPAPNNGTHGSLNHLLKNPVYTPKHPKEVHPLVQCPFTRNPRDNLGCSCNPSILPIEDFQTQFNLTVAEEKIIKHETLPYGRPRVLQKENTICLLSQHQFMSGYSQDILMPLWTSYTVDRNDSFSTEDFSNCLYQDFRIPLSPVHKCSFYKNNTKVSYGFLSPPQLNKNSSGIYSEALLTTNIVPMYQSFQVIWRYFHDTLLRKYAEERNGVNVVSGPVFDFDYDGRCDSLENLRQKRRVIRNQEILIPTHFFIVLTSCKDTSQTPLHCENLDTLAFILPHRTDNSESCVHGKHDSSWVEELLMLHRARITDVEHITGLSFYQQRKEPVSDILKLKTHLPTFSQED
outcome.measure: metabolised at 2 h, 4000 µM (%)

molecule	outcome.measure	val
CSc1nc(N)c2ncn([C@@H]3O[C@H](COP(=O)(S)OP(=O)(O)O)[C@@H](O)[C@H]3O)c2n1 (stereo in doubt; 7A)	metabolised at 2 h, 4000 µM	36.6

* * *

Documented half-life across a set of compounds
test: Half life of the compound in RPMI-1640 medium at 37 degC by HPLC analysis; format: ADME
outcome.measure: half-life

compound	val
Nc1ncnc2c1ncn2[C@@H]1O[C@H](COP(=O)(O)OP(=O)(O)O)[C@@H](O)[C@H]1O [ADENOSINE DIPHOSPHATE]	90 min
Nc1ncnc2c1ncn2[C@@H]1O[C@H](COP(=O)(S)OP(=O)(O)O)[C@@H](O)[C@H]1O (stereo in doubt; 6A)	870 min
CSc1nc(N)c2ncn([C@@H]3O[C@H](COP(=O)(S)OP(=O)(O)O)[C@@H](O)[C@H]3O)c2n1 (stereo in doubt; 7A)	900 min

Data provenance: ChEMBL document CHEMBL3632592
